# PROTOCOL_DESCRIPTION: Lipophilicity, log D of the compound
# Type: physicochemical
# MEASUREMENT_CONDITIONS: octanol/water
QUANTITY_KIND: logD

Some compounds with known logD results, for comparison:
{"CHEMICAL_STRING": "Cc1cc(C)c(S(=O)(=O)N(CC(=O)O)c2ccc(N(CC(=O)O)S(=O)(=O)c3c(C)cc(C)cc3C)c3ccccc23)c(C)c1", "NUMERIC_READOUT": 3.44}
{"CHEMICAL_STRING": "CCCCc1ccc(S(=O)(=O)N(CC(=O)O)c2ccc(N(CC(=O)O)S(=O)(=O)c3ccc(CCCC)cc3)c3ccccc23)cc1", "NUMERIC_READOUT": 1.89}
{"CHEMICAL_STRING": "O=C(O)CN(c1ccc(N(CC(=O)O)S(=O)(=O)c2ccc(F)cc2)c2ccccc12)S(=O)(=O)c1ccc(F)cc1", "NUMERIC_READOUT": 1.16}

a = CC(=O)Nc1ccc(S(=O)(=O)N(CC(=O)O)c2ccc(N(CC(=O)O)S(=O)(=O)c3ccc(NC(C)=O)cc3)c3ccccc23)cc1
b = O=C(O)CN(c1ccc(N(CC(=O)O)S(=O)(=O)c2ccc(C(F)(F)F)cc2)c2ccccc12)S(=O)(=O)c1ccc(C(F)(F)F)cc1
c = O=C(O)CN(c1ccc(N(CC(=O)O)S(=O)(=O)c2ccc(Br)cc2)c2ccccc12)S(=O)(=O)c1ccc(Br)cc1
query: List the 3 entries from lowest logD to highest logD value. In your reply, arrange the labels in the requested order.
result: a, b, c
(a: 1.02, b: 2.81, c: 4.29)

FYI, the data here is from ChEMBL document CHEMBL3600323.
